Catalogue of relative induction of RFP reporter values
- Tested on: HpdA/P_H16_RS24175 L-tyrosine biosensor (pEH158)
- assay_info: relative induction of RFP reporter vs primary effector; higher = stronger activation
- particulars: inducer concentration 5 mM; 6 h; Cupriavidus necator H16; minimal medium + 0.4% gluconate
Record the result as number plus unit.

Completed entries (count: 3):
- compound: "CC(=O)C(C)O (stereo not given) [acetoin]"
  relative induction of RFP reporter: "-0.195%"
- compound: "O=C(O)c1ccc(O)c(O)c1 [3,4-dihydroxybenzoate]"
  relative induction of RFP reporter: "-0.149%"
- compound: "N[C@@H](Cc1ccccc1)C(=O)O [L-phenylalanine]"
  relative induction of RFP reporter: "57.7%"

Turning now to a further record.
Answer with the recorded relative induction of RFP reporter of O=C(O)CS(=O)(=O)O [sulfonatoacetate] only. -0.143%
